Hey, just so you know, these numbers are from patent US20220177587A1.

Please provide measured Fold change to WT CD80 for the entries that follow.
Biological target: human CTLA-4 (human) (UniProt P16410)
Sequence (P16410 36-223): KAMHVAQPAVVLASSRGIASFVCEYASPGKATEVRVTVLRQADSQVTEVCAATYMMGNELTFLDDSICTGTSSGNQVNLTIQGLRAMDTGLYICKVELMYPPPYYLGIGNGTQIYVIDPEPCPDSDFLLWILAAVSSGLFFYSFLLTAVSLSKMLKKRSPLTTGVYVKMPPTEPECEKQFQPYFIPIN
Assay: flow cytometry, CHO/CTLA4 cells; MFI over CD80 WT IgV-Fc
Return type: number; implicit unit fold.

Recall and state the measured Fold change to WT CD80 for variant CD80 IgV-Fc (inert) H18V/A26K/E35D/M47L/V68M/A71G (Fc fusion) VIHVTKEVKEVATLSCGVNVSVEELKQTRIYWQKDKKMVLTMMSGDLNIWPEYKNRTIFDITNNLSIMILGLRPSDEGTYECVVLKYEKDAFKREHLAEVTLSVKAD .
16.6

State its Fold change to WT CD80 for this binder: variant CD80 IgV-Fc (inert) H18V/E35D/M47V/V68M/A71G/D90G (Fc fusion) VIHVTKEVKEVATLSCGVNVSVEELAQTRIYWQKDKKMVLTMMSGDVNIWPEYKNRTIFDITNNLSIMILGLRPSDEGTYECVVLKYEKGAFKREHLAEVTLSVKAD
12.1
